Source: PubChem BioAssay (NCI)

system: HCT-116 colon
Outcome codes: true (active), false (inactive)

molecule	label
O=C(/C=C/OC(=O)c1cccc(Cl)c1)c1ccc(Cl)cc1	false
Cc1ccc(S(=O)(=O)Nc2ccc(-c3cc(-c4cccc(F)c4)c(C#N)c(N)n3)cc2)cc1	false
COc1cccc(Nc2nccc(-c3cnn4ncccc34)n2)c1	true
CCCCCC[C@H](C)NC(=O)c1ccc(Nc2nc3ccccc3c3occc23)cc1	false
CCCN1CCC(c2ccc(Nc3nc(Nc4cc(F)ccc4C(N)=O)c4cc[nH]c4n3)c(OC)c2)CC1	true
C1C[OH+]CC[OH+]CCNCC[OH+]CC[OH+]CCN1.Cl.[Cl-].[Pt+4]	false
C[C@@H](Oc1cc(-n2cnc3ccc(OC[C@@H](O)CO)cc32)sc1C(N)=O)c1ccccc1Cl	true
CC1=C([Se]CC(OC(=O)[C@@H](CO)NC(=O)OC(C)(C)C)C(=O)NCCCCCC(=O)OCc2ccccc2)C(=O)c2ccccc2C1=O (some centres undefined)	false
COc1ccc(OC)c(/C=C/c2nc(SCc3ccccc3)n(-c3ccc(Cl)cc3)n2)c1	false
